assay: In vivo biodistribution in normal Balb/c mice; parameters: species or system mouse; conditions: female, mouse, kidneys, iv, total radioactivity; normal Balb/c mice, 45 min p.i., i.v. tail vein, mean ± SD, n = 4-6; read-out: Kidneys uptake
Where a SMILES comes first, the peptide text is derived from it. [ ]: non-standard residue; d: D form. The star is where a group is joined. DOTA = O=C(O)CN1CCN(CC(=O)O)CCN(CC(=O)*)CCN(CC(=O)O)CC1; βAla = NCCC(=O)O
parameter: tissue uptake at 0.75 h (%ID/g)
Enter your answer as a number in %ID/g; do not include the unit.

Problem: Reported tissue uptake at 0.75 h, compound CC[C@H](C)[C@H](NC(=O)[C@H](Cc1ccc(O)cc1)NC(=O)[C@@H](NC(=O)[C@H](CCCNC(=N)N)NC(=O)[C@H](CC(=O)O)NC(=O)CCNC(=O)[C@H](CCCCN)NC(=O)CN1CCN(CC(=O)O)CCN(CC(=O)O)CCN(CC(=O)O)CC1)C(C)C)C(=O)N[C@@H](Cc1c[nH]cn1)C(=O)N1CCC[C@H]1C(=O)N[C@@H](Cc1ccccc1)C(=O)N[C@@H](Cc1c[nH]c2ccccc12)C(=O)N[C@@H](CCCCN)C(=O)N[C@@H](Cc1ccc(O)cc1)C(N)=O [^68Ga-DOTA-AngII peptide, metal not drawn] ({DOTA}-K[βAla]DRVYIHPFWKY-NH2) : ____
Result: 9.95

Where these numbers come from: paper PMC10675340
